System: HaCat
Assay Name: Cytotoxic Profiling of Annotated Libraries Using Quantitative High-Throughput Screening (AID 1296008); note: % is set by controls: 0 for no effect and ±100 for the full control effect; nearly all actives have a fitted effect of over 60% in size
Condition Details: Five cell lines viability, CellTiter-Glo ATP luminescence, 48-72 h; active compounds read low
Records with an inconclusive call do not appear.
For each of the compounds below, state its max response.
Numbers only, in %.

Example results:
1) Cc1cc2nc3c(=O)[nH]c(=O)nc-3n(C[C@H](O)[C@H](O)[C@H](O)CO)c2cc1C
-19.1
2) CC(C)C(=O)c1c(C(C)C)nn2ccccc12
2.88
3) CC(=O)NC(Cc1ccccc1)C(=O)O (stereo not given)
-9.27
4) CN(C)CC[C@@H](c1ccc(Cl)cc1)c1ccccn1
0.999
5) COc1ccc2c(c1)C(=O)N(CCc1ccc(S(=O)(=O)NC(=O)NC3CCCCC3)cc1)C(=O)C2(C)C
4.11
6) CC(C(O)c1ccc(O)cc1)N1CCC(Cc2ccccc2)CC1 (stereo not given)
-22.6
7) CCOc1ccc2ccccc2c1C(=O)N[C@@H]1C(=O)N2[C@@H]1SC(C)(C)[C@@H]2C(=O)O
4.96
8) NCC(=O)CCC(=O)O
-9.5

Each of the following entries comes with a recorded value; kindly state max response for each.
1. CO/N=C(\C(=O)N[C@@H]1C(=O)N2C(C(=O)O)=C(CSc3nc(=O)c(O)nn3C)CS[C@H]12)c1csc(N)n1
2. Cn1c(=O)c2c(ncn2CC2OCCO2)n(C)c1=O

RESULT:
[-21.1, -3.76]
